Target: T1, recombinant eNOS oxygenase domain
T1 chain: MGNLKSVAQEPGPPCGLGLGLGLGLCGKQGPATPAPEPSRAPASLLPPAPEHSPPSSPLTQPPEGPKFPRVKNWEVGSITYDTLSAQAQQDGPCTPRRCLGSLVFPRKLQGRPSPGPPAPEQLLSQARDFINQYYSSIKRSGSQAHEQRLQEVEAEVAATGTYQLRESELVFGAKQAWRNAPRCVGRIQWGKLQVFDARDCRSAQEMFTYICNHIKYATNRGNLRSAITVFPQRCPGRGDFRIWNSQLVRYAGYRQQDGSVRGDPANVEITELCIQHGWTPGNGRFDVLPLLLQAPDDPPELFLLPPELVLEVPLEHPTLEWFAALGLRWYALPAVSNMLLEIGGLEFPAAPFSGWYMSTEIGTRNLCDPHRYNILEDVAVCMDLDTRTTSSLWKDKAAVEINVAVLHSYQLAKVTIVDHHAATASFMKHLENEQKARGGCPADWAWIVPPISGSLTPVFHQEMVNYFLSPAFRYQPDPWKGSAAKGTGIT
Test: fluorescence polarisation; 1 μM recombinant oxygenase domain of eNOS incubated with peptide labelled with Alexa Fluor 488 at the C-terminus; SpectraMax M5 plate reader; triplicate measurements per concentration
Conditions: both partners purified
No end group written: not given here. Alexa Fluor 488 = Alexa Fluor 488 fluorescent dye tag
Measurement kind: Kd (nM)
Number in nM, nothing else.

// sample LSFPTTKTYF-{Alexa Fluor 488} (source: synthetic peptide (AnaSpec)) [alpha globin mimetic peptide (alpha globin binding sequence LSFPTTKTYF)] , its Kd was 16.8
